test: Resistance to Poly (ADP-Ribose) Polymerase inhibitor: Gene Identification via Genome-wide siRNA Screen; settings: mouse BRCA2 R2336H ES cells, olaparib, CellTiter-Glo viability
Out of some 52,000 sequences screened, about 210 (0.4%) were called active.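 How the source made its calls: active means gene whose silencing raises cell survival under the drug, median off-target-corrected z-score across its silencing RNAs 2 or more; inactive means the rest.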 Shown is part of a subset that was picked to be rich in actives.
Possible outcomes: active, inactive

- SEQUENCE_INPUT: "CCAAGCAACACCACUCAUCTT against Centb2"
  CLASS_ASSIGNMENT: "inactive"
- SEQUENCE_INPUT: "GGUUUGAGCUCUUUAUUUUTT against Cyp2j13"
  CLASS_ASSIGNMENT: "inactive"
- SEQUENCE_INPUT: "GCUGAAAUACCACUCUCCGTT against Chl1"
  CLASS_ASSIGNMENT: "active"
- SEQUENCE_INPUT: "GGUUUUCUUAAAAUAGGAGTT against Tat"
  CLASS_ASSIGNMENT: "active"
- SEQUENCE_INPUT: "GGUUUUAGAAGGGAAACAUTT against Ppp2r2c"
  CLASS_ASSIGNMENT: "inactive"
- SEQUENCE_INPUT: "GGUCCUUCCUCAGAUCCCUTT against 5730457F11Rik"
  CLASS_ASSIGNMENT: "active"
